// reported log10 of MIC for each item listed
- System: Mycobacterium tuberculosis
- EXPERIMENT SUMMARY: AntiMycobacterium tuberculosis activity 1-week 7H9/glucose/BSA/Tx MIC (uM)
- Type: functional
- RUN PARAMETERS: 168 h
Please note: log10 values; quantity MIC; unit µM.

Please review the entries below; each comes with its answer.
- COMPOUND: "Cc1ccc2nc(C)c(-c3ccn(Cc4ccccc4)n3)n2c1"
  SUBJECT OF TEST: "Mycobacterium tuberculosis"
  log10 of MIC: 1.70
- COMPOUND: "CCOC(=O)c1cc(-c2csc(Nc3c(C)cc(C)cc3C)n2)on1"
  SUBJECT OF TEST: "Mycobacterium tuberculosis"
  log10 of MIC: 0.50
- COMPOUND: "CCOC(=O)c1c(NC(=O)c2c(F)c(F)c(F)c(F)c2F)sc(C(N)=O)c1C"
  SUBJECT OF TEST: "Mycobacterium tuberculosis"
  log10 of MIC: -1.00
- COMPOUND: "O=C(c1ccco1)N(CCCn1ccnc1)c1nc2c(Cl)cccc2s1"
  SUBJECT OF TEST: "Mycobacterium tuberculosis"
  log10 of MIC: 1.70
- COMPOUND: "CCc1nc2ccccc2n1CC(O)COc1cc(C)ccc1Cl (stereo not given)"
  SUBJECT OF TEST: "Mycobacterium tuberculosis"
  log10 of MIC: 1.57

Test system Mycobacterium tuberculosis; read-out log10 of MIC; what value for "O=[N+]([O-])c1cn2c(n1)OC[C@@H](OCc1ccc(OC(F)(F)F)cc1)C2" ?
-0.41

Test system Mycobacterium tuberculosis; read-out log10 of MIC; what value for "Cc1ccccc1CN1CCC(O)(c2ccc(Cl)c(C(F)(F)F)c2)CC1" ?
-0.41

###

- Test system: HepG2
- EXPERIMENT SUMMARY: Cytotoxicity data HepG2 CC20 (uM)
- Type: functional
// reported CC20 for each item listed
Please reply with the bare figure in µM and do not write the unit itself.

Please review the entries below; each comes with its answer.
- MOLECULE: "O=C(Nc1ccc(N2CCNCC2)cc1)c1ccn2ncc(-c3cccc(Cl)c3)c2n1"
  CC20, µM: 0.76
- MOLECULE: "CC(C)(C)OC(=O)N1CCN(c2cc(-c3ccc(Oc4ccccc4)cc3)n[nH]2)CC1"
  CC20, µM: 4.03

Test system HepG2; read-out CC20; what value for "c1ccc(Oc2ccc(-c3cc(CN4CCOCC4)[nH]n3)cc2)cc1" ?
28.9

Test system HepG2; read-out CC20; what value for "CC(C)(C)CN1C(=O)C(c2ccccc2)(c2ccccc2)N=C1N" ?
1.17

Test system HepG2; read-out CC20; what value for Cc1cc2ccccc2n1CC(=O)N1CC(C(=O)N2CCCCC2)Oc2ccccc21 (stereo not given) ?
21.8

Test system HepG2; read-out CC20; what value for "CN(C(=O)c1cc2c(-c3cncnc3)cccc2[nH]1)c1ccccc1" ?
6.04

Test system HepG2; read-out CC20; what value for "CN(C)CCNC(=O)N1CCCN(c2ncnc3cc(-c4ccccc4)sc23)CC1" ?
6.21

###

- Tested on: Toxoplasma gondii
- EXPERIMENT SUMMARY: AntiToxoplasma gondii activity data 2-day killing assay: inhibition at 10 uM (%) Experiment D
- Format: functional
// reported Inhibition for each item listed
Please reply with the bare figure in % and do not write the unit itself.

- COMPOUND: "Nc1ncnc2[nH]nc(Cc3cccc4ccccc34)c12"
  MEASURE UNIT: "%"
  Inhibition: 89.2
- COMPOUND: "O=C(OCc1ccccc1)N1CCC(c2cc(-c3ccncc3)c(-c3ccc(F)cc3)[nH]2)CC1"
  MEASURE UNIT: "%"
  Inhibition: 76.8
- COMPOUND: "CC(C(=O)Nc1ccc2oc(-c3ccncc3)nc2c1)c1ccccc1 (centres undefined)"
  MEASURE UNIT: "%"
  Inhibition: 62.6

Which value of Inhibition has been reported for "CC(=O)N1CCN(c2ccc(Oc3ccc(Cl)cc3O)cc2)CC1" in the records?
22.4
